# Test system: K562
# ASSAY METHOD TEXT: NCI tumour cell line growth inhibition, 48 h
Activity calls are given as the source filed them. Rule as the data show it: active = GI50 up to about 1.1 µM and inactive = higher.
Log the outcome using a class from class 1 for active, class 0 for inactive

Task: Tell me the assay call for `CCOc1cccc2nc3cccc(C(=O)NCCN(C)C)c3nc12` please.
Result: class 1

Task: Next molecule up: `C(=N\OCc1ccccc1)/c1ncccc1C1OCCO1`
Result: class 0

Task: Next molecule up: `CN(C)c1ccc(/C=C/C(=O)O)cc1`
Result: class 0

Task: Next molecule up: `Cc1nc(Nc2ccccc2)sc1C(=O)NNC(N)=O`
Result: class 0

Task: Next molecule up: `COC(=O)c1ccc(/N=N/N(C)CO)cc1`
Result: class 0

Task: Next molecule up: COc1ccc(NC(=O)C2C(=O)N(c3ccc(OC)cc3)C(=O)/C2=N\N)cc1 (stereo unspecified)
Result: class 0
